Ref: patent US8975235B2

Target of assay: Human LPA1 (Homo sapiens, UniProt Q92633)
Sequence (Q92633 whole entry): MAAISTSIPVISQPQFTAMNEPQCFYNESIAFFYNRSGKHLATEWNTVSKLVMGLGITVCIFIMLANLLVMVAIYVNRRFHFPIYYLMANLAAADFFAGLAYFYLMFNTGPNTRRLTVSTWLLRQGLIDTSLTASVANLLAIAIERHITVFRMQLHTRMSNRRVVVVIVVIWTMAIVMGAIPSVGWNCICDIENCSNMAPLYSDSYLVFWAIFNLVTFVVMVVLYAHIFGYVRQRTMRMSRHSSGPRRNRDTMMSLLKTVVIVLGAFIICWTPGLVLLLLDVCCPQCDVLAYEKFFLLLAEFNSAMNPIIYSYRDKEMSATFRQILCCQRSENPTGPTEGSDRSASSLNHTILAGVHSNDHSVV
Experiment description: Beta-Arrestin based assay for human LPA1R antagonists (PathHunter)
Condition info: CHO cells stably expressing ProLink tagged human LPA1R; agonist LPA 0.5 micromolar
Value type: EC50

C[C@H](NC(=O)OCc1ccccc1)C(=O)N1CCN(c2ccc(CC(=O)O)cc2)CC1    > 500 nM
Cc1nsc(-c2ccc(-c3ccc(C4(C(=O)O)CC4)cc3)cc2)c1NC(=O)O[C@H](C)c1ccccn1    50 to 500 nM
Cc1nsc(-c2ccc(-c3ccc(C4(C(=O)O)CC4)cc3)cc2)c1NC(=O)OCc1ccccc1    < 50 nM
Cc1onc(-c2ccc(-c3ccc(C4(C(=O)O)CC4)cc3)cc2)c1NC(=O)O[C@H](C)c1ccccc1Cl    < 50 nM
Cc1noc(C#Cc2ccc(C3(C(=O)O)CC3)cc2)c1NC(=O)O[C@H](C)c1ccccc1    50 to 500 nM
Cc1nsc(-c2ccc(-c3ccc(CC(=O)O)c(Cl)c3)cc2)c1NC(=O)O[C@H](C)c1ccccc1Cl    50 to 500 nM

// next entry
Ask | // map Cc1nsc(-c2ccc3cc(C#CC4(C(=O)O)CC4)ccc3c2)c1NC(=O)OCc1ccccc1 to recorded EC50 (system: Human LPA1 (Homo sapiens, UniProt Q92633))
Reply | 50 to 500 nM

###

The reader will find reported IC50 values listed item by item below.
Target of assay: Human LPA1 (Homo sapiens, UniProt Q92633)
Experiment description: LPA1 calcium flux assay
Condition info: human LPA1 expressing CHO cells; stimulated with 10 nM LPA; read-out: Ca Flux LPA1 IC50
Method: Establishment of a CHO Cell Line Stably Expressing Human LPA1 A 1.1 kb cDNA encoding the human LPA1 receptor is cloned from human lung. […] Human LPA1 or LPA3 expressing CHO cells were seeded at 20,000-45,000 cells per well in a 96-well poly-D-lysine coated plate one or two days before the assay. […] Cells were then stimulated by the addition of 10 nM LPA and intracellular Ca^2+ measured using the Flexstation 3 (Molecular Devices). […]

Below, 5 compounds whose answers are already recorded.
Cc1nsc(-c2ccc(-c3ccc(C4(C(=O)O)CC4)cc3)cc2)c1NC(=O)OCc1ccccc1Cl    50 to 500 nM
Cc1nsc(C#Cc2ccc(C3(C(=O)O)CC3)cc2)c1NC(=O)O[C@H](C)c1ccccc1Cl    < 50 nM
Cc1nnn(-c2ccc(-c3ccc(C4(C(=O)O)CC4)cc3)cc2)c1NC(=O)O[C@H](C)c1ccccc1Cl    50 to 500 nM
Cc1nsc(-c2cc(F)c(-c3ccc(C4(C(=O)O)CC4)cc3)cc2F)c1NC(=O)O[C@H](C)c1ccccc1    < 50 nM
C[C@@H](OC(=O)Nc1c(-c2ccc(-c3ccc(C4(C(=O)O)CC4)cc3)cc2)oc2cnccc12)c1ccccc1Cl    50 to 500 nM

Ask | Look at this compound and give its reported IC50. Cc1nsc(-c2ccc(-c3ccc(C(C(=O)O)c4ccccc4)cc3)cc2)c1NC(=O)O[C@H](C)c1ccccc1Cl (single isomer, unassigned) [Compound 70]
Reply | > 500 nM

Ask | Item: Cc1nnn(-c2ccc(-c3ccc(C4(C(=O)O)CC4)cc3)cc2)c1NC(=O)O[C@H](C)c1ccccc1
Reply | < 50 nM

Ask | Item: Cc1nsc(-c2ccc(-c3ccc(CC(=O)O)cc3)cc2)c1NC(=O)O[C@H](C)c1ccccc1Cl
Reply | < 50 nM

Ask | Item: C[C@@H](OC(=O)Nc1c(-c2ccc(-c3ccc(C4(C(=O)O)CC4)cc3)cc2)oc2ccc(F)cc12)c1ccccc1Cl
Reply | > 500 nM

Ask | Item: Cc1noc(-c2ccc(-c3ccc(C4CCOCC4C(=O)O)cc3)cc2)c1NC(=O)O[C@H](C)c1ccccc1Cl (some centres unmarked)
Reply | 50 to 500 nM

Ask | Item: Cc1noc(-c2ccc3c(c2)CCc2cc(CC(=O)O)ccc2-3)c1NC(=O)O[C@H](C)c1ccccc1Cl
Reply | 50 to 500 nM

Ask | Item: Cc1nsc(-c2cc(Cl)c(-c3ccc(C4(C(=O)O)CC4)cc3)cc2F)c1NC(=O)O[C@H](C)c1ccccc1
Reply | 50 to 500 nM

Ask | Item: C[C@@H](OC(=O)Nc1c(-c2ccc(-c3ccc(C4(C(=O)O)CC4)cc3)cc2)oc2ncccc12)c1ccccc1
Reply | 50 to 500 nM

Ask | Item: Cc1ccccc1[C@@H](C)OC(=O)Nc1c(C)nsc1-c1ccc(-c2ccc(C3(C(=O)O)CC3)cc2)cc1
Reply | 50 to 500 nM
